Target system: UniProtKB Q9JHG3
Sequence (Q9JHG3 whole entry, the tested form may be a part): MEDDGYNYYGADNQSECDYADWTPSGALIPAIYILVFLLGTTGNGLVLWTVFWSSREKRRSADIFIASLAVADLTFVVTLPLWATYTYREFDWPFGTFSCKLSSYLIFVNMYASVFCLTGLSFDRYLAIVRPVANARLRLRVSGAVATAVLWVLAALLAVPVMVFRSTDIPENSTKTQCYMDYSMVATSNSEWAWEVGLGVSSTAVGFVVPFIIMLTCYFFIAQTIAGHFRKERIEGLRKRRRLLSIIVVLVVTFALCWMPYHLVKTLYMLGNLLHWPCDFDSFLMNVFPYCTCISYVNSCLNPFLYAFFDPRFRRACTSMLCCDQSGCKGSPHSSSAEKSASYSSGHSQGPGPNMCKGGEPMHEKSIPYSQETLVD
Measurement protocol: Displacement of [125I]-(Glp1,Nle11,[…])apelin-13 from recombinant rat EGFP-fused apelin receptor expressed in CHO cell membrane measured after 3 hrs
Assay type: cell membranes
Active and inactive are the calls of the source. The rule behind the calls is not given here. Non-standard residues stand in square brackets, D forms with d. Residues, ends and D or L forms follow the SMILES beside them. Phe(4-Br) = N[C@@H](Cc1ccc(Br)cc1)C(=O)O; NMeL = CN[C@@H](CC(C)C)C(=O)O; Nle = CCCC[C@H](N)C(=O)O; Aib = CC(C)(N)C(=O)O
Metric name: displacement activity (active/inactive)

CCCC[C@H](NC(=O)[C@@H]1CCCN1C(=O)CNC(=O)[C@H](CCCCN)NC(=O)[C@H](Cc1c[nH]cn1)NC(=O)[C@H](CO)NC(=O)[C@H](CC(C)C)NC(=O)[C@H](CCCNC(=N)N)NC(=O)[C@@H]1CCCN1C(=O)[C@H](CCCNC(=N)N)NC(=O)[C@H](CCC(N)=O)NC(=O)[C@H](CCCNC(=N)N)NC(=O)[C@H](CCCNC(=N)N)NC(=O)[C@H](Cc1ccccc1)NC(=O)[C@@H](N)CCCCN)C(=O)NC(C)(C)C(=O)N[C@@H](Cc1ccc(Br)cc1)C(=O)O (H-KFRRQRPRLSHKGP[Nle][Aib][Phe(4-Br)]-OH): Active
CCCC[C@H](NC(=O)[C@@H]1CCCN1C(=O)CNC(=O)[C@H](CCCCN)NC(=O)[C@H](Cc1c[nH]cn1)NC(=O)[C@H](CO)NC(=O)[C@H](CC(C)C)N(C)C(=O)[C@H](CCCNC(=N)N)NC(=O)[C@@H]1CCCN1C(=O)[C@H](CCCNC(=N)N)NC(=O)[C@H](CCC(N)=O)NC(=O)[C@H](CCCNC(=N)N)NC(=O)[C@H](CCCNC(=N)N)NC(=O)[C@H](Cc1ccccc1)NC(=O)[C@@H](N)CCCCN)C(=O)NC(C)(C)C(=O)N[C@@H](Cc1ccc(Br)cc1)C(=O)O (H-KFRRQRPR[NMeL]SHKGP[Nle][Aib][Phe(4-Br)]-OH): Active
CCCC[C@H](NC(=O)[C@@H]1CCCN1C(=O)CNC(=O)[C@H](CCCCN)NC(=O)[C@H](Cc1cnc[nH]1)NC(=O)[C@H](CO)NC(=O)[C@H](CC(C)C)N(C)C(=O)[C@H](CCCNC(=N)N)NC(=O)[C@@H]1CCCN1C(=O)[C@H](CCCNC(=N)N)NC(=O)[C@H](CCC(N)=O)NC(=O)[C@@H](N)CCCNC(=N)N)C(=O)NC(C)(C)C(=O)N[C@@H](Cc1ccc(Br)cc1)C(=O)O (H-RQRPR[NMeL]SHKGP[Nle][Aib][Phe(4-Br)]-OH): Active
